# inhibition values compiled below
- measurement_target: Rhodopsin kinase GRK7 (Homo sapiens) (UniProt Q8WTQ7);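 further: mean percent inhibition of GRK7, profiled as part of the GSK PKIS screen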
- Sequence (Q8WTQ7 whole entry): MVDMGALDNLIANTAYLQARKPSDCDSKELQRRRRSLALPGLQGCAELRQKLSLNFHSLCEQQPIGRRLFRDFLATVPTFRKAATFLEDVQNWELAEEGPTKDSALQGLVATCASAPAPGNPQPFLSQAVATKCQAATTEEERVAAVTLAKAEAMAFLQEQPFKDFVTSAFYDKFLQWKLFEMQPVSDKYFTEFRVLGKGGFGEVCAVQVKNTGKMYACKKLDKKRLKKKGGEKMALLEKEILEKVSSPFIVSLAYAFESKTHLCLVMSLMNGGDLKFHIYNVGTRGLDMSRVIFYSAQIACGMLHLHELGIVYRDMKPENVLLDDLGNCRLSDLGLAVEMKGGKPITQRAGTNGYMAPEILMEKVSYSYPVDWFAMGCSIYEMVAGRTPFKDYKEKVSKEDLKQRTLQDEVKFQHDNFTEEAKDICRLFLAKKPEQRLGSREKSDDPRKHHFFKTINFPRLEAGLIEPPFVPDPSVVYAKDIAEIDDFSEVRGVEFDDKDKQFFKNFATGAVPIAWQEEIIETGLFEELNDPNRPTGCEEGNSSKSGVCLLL
- cond: at 1 µM

{"compound": "CS(=O)(=O)CCNCc1ccc(-c2ccc3ncnc(Nc4ccc(OCc5ccccc5)c(Cl)c4)c3c2)o1", "unit_abbreviation": "%", "inhibition": -3.27}
{"compound": "COc1ccc(-c2ccncc2)cc1C(N)=O", "unit_abbreviation": "%", "inhibition": 2.23}
{"compound": "CCn1c(-c2nonc2N)nc2c(C#CC(C)(C)O)nc(OC[C@@H](N)c3ccccc3)cc21", "unit_abbreviation": "%", "inhibition": 16.6}
{"compound": "CS(=O)(=O)CCN(CC#N)Cc1ccc(-c2ccc3ncnc(Nc4ccc(OCc5cccc(F)c5)c(Cl)c4)c3c2)o1", "unit_abbreviation": "%", "inhibition": 2.37}
{"compound": "Cc1ccc(NC(=O)c2ccnc(N3CCCC3)c2)cc1-c1ccc(C(=O)NCC2CC2)cc1", "unit_abbreviation": "%", "inhibition": 10.4}
{"compound": "COc1cc2ncn(-c3cc(OCc4ccccc4Cl)c(C(N)=O)s3)c2cc1OC", "unit_abbreviation": "%", "inhibition": 9.44}
{"compound": "CCCN1CCC(Oc2cc(Nc3nc(Nc4cccc(F)c4C(N)=O)c4cc[nH]c4n3)c(OC)cc2Cl)CC1", "unit_abbreviation": "%", "inhibition": 7.39}
{"compound": "Fc1cccc(COc2ccc(Nc3ncnc4cc(-c5ccc[nH]5)sc34)cc2Cl)c1", "unit_abbreviation": "%", "inhibition": 13.6}
{"compound": "COc1ccccc1Nc1ncc(-c2ccccc2)o1", "unit_abbreviation": "%", "inhibition": 2.31}
{"compound": "CCCN1CCC=C(c2ccc(Nc3nc(Nc4ccccc4C(N)=O)c4cc[nH]c4n3)c(C)c2)C1", "unit_abbreviation": "%", "inhibition": 20.5}
{"compound": "CCn1c(-c2nonc2N)nc2cnc(Oc3cccc(NC(=O)c4ccc(OCCN5CCOCC5)cc4)c3)cc21", "unit_abbreviation": "%", "inhibition": 9.5}
{"compound": "O=C1NC(=O)C(c2cccc(Cl)c2)=C1Nc1ccc(O)c(Cl)c1", "unit_abbreviation": "%", "inhibition": 6.41}
{"compound": "Cc1cccc(-c2n[nH]cc2-c2ccc3ncccc3n2)n1", "unit_abbreviation": "%", "inhibition": 5.08}
{"compound": "CCc1cccc(NC(=O)Nc2ccc(Oc3ccc4nc(NC(=O)OC)[nH]c4c3)cc2)c1", "unit_abbreviation": "%", "inhibition": 15.6}
{"compound": "COc1cc2ncn(-c3cc(O[C@H](C)c4ccccc4Cl)c(C(N)=O)s3)c2cc1OC", "unit_abbreviation": "%", "inhibition": 10.8}
{"compound": "COc1cc2ncn(-c3cc(OCc4ccccc4C(F)(F)F)c(C(N)=O)s3)c2cc1OC", "unit_abbreviation": "%", "inhibition": 6.72}
{"compound": "CN1CCC(C(=O)Nc2n[nH]c3nnc(-c4ccccc4)cc23)CC1", "unit_abbreviation": "%", "inhibition": 15.6}
{"compound": "N#Cc1c(NC(=O)c2cccc3ccccc23)sc2c1CCCC2", "unit_abbreviation": "%", "inhibition": 6.83}
{"compound": "Nc1ncnc2occ(-c3ccc(NC(=O)Nc4cccc(C(F)(F)F)c4)cc3)c12", "unit_abbreviation": "%", "inhibition": 4.95}
{"compound": "CC1=C(C(=O)Nc2ccc3[nH]ncc3c2)C(c2ccc3ccccc3c2)CC(=O)N1 (stereo not given)", "unit_abbreviation": "%", "inhibition": 4.56}
{"compound": "NS(=O)(=O)c1cccc(-c2ccc3c(NC(=O)C4CC4)n[nH]c3c2)c1", "unit_abbreviation": "%", "inhibition": -0.65}
{"compound": "COc1cc(C=NNc2ncnc3c2cnn3-c2ccccc2)ccc1O", "unit_abbreviation": "%", "inhibition": -4.38}
{"compound": "CCn1c(-c2nonc2N)nc2cncc(C(=O)N3CC[C@H](N)C3)c21", "unit_abbreviation": "%", "inhibition": 10.7}
{"compound": "CCn1c(-c2nonc2N)nc2cncc(C(=O)N3CCNCC3)c21", "unit_abbreviation": "%", "inhibition": 9.01}
{"compound": "O=C1Nc2ccc(C(=O)c3ccco3)cc2C1=Cc1cc(Cl)c(O)c(Cl)c1", "unit_abbreviation": "%", "inhibition": 54.8}
{"compound": "COc1cc2c(cc1Nc1nc(N3CCc4ccccc43)c3cc[nH]c3n1)N(C(=O)CN(C)C)CC2", "unit_abbreviation": "%", "inhibition": -6.08}
{"compound": "CCn1c(-c2nonc2N)nc2ccncc21", "unit_abbreviation": "%", "inhibition": 2.02}
{"compound": "NS(=O)(=O)c1ccc(N/N=C2\\C(=O)Nc3ccc(C(=O)NCCc4c[nH]cn4)cc32)cc1", "unit_abbreviation": "%", "inhibition": 7.5}
{"compound": "Nc1nc(-c2ccc3c(c2)C(=Cc2cc(Br)c(O)c(Br)c2)C(=O)N3)cs1", "unit_abbreviation": "%", "inhibition": 22.8}
{"compound": "COc1cc(C)c(NC(=O)CN(C)C)cc1Nc1nc(Nc2cccc(F)c2C(N)=O)c2cc[nH]c2n1", "unit_abbreviation": "%", "inhibition": 28.1}
{"compound": "Cn1cc(C=C2C(=O)Nc3cccnc32)c2ccccc21", "unit_abbreviation": "%", "inhibition": 10.6}
{"compound": "CN(C)c1cc2c(Nc3ccc4nc(Cc5ccccc5)[nH]c4c3)ncnc2cn1", "unit_abbreviation": "%", "inhibition": 22.6}
{"compound": "Cc1ccc(C(=O)NC2CCCCC2)cc1-c1ccc(C(=O)NCC2CC2)cc1", "unit_abbreviation": "%", "inhibition": 6.92}
{"compound": "NC(=O)c1ccc(-c2nc(-c3ccccn3)c(-c3ccc4c(c3)OCO4)[nH]2)cc1", "unit_abbreviation": "%", "inhibition": 6.3}
{"compound": "CCn1c(-c2nonc2N)nc2c(C#CC(C)(C)O)nc(CN3CCCC3)cc21", "unit_abbreviation": "%", "inhibition": 3.4}
{"compound": "COc1ccc(-c2nn3ncccc3c2-c2ccnc(Nc3ccc(Cl)c(C(F)(F)F)c3)n2)cc1", "unit_abbreviation": "%", "inhibition": 8.67}
{"compound": "COc1ccc(COc2ccc(Cc3cnc(N)nc3N)cc2OC)cc1", "unit_abbreviation": "%", "inhibition": -7.03}
{"compound": "Nc1nc(-c2ccccn2)c(-c2ccc3ncccc3n2)s1", "unit_abbreviation": "%", "inhibition": -0.58}
{"compound": "COc1cc2ncn(-c3cc(O[C@@H](C)c4ccccc4Cl)c(C(N)=O)s3)c2cc1OC", "unit_abbreviation": "%", "inhibition": 4.64}
{"compound": "CS(=O)(=O)Nc1ccc(N/C=C2\\C(=O)Nc3ccccc32)cc1", "unit_abbreviation": "%", "inhibition": -5.45}
